# Target Or System: Recombinant human IKKβ (residues 1-737) (Homo sapiens, UniProt O14920)
# Construct: Recombinant human IKKβ (residues 1-737); GST (C); made in house
# Sequence (O14920 1-737): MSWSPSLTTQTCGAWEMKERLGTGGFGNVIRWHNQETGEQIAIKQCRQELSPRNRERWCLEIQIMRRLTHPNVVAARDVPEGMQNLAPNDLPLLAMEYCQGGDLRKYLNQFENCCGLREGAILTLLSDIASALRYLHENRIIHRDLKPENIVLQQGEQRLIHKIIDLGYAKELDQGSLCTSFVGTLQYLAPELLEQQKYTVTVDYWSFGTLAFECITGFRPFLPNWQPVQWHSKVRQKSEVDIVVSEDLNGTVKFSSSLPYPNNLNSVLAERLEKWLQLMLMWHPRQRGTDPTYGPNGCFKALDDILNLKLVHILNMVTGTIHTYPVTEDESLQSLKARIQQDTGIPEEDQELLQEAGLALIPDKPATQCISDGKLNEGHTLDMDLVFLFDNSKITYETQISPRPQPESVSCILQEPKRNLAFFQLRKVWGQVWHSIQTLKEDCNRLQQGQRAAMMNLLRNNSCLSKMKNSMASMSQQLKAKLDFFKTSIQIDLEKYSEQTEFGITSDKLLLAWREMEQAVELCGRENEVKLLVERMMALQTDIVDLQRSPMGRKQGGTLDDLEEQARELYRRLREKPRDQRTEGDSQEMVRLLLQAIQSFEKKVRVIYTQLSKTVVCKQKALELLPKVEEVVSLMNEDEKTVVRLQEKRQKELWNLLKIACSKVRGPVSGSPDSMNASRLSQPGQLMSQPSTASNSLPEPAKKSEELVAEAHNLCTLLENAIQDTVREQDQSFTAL
# Assay Procedure: IKK2 assay (TR-FRET)
# Assay type: biochemical
# Test Settings: ATP 1 μM final, read-out: pIC50 against IKK2 (converted)
Where a name gives a salt, the structure may show the parent alone.
Observable: IC50

Some compounds with recorded IC50:
Compound	Result
CCS(=O)(=O)N1CCC(c2c[nH]c3c(C(N)=O)cc(-c4cc(CN5CCCC5)ccc4F)cc23)CC1 [Example 340, trifluoroacetate]	≤ 10 µM
CCS(=O)(=O)N1CCC(c2c[nH]c3c(C(N)=O)cc(-c4cccc(CNCC(C)C)c4)cc23)CC1	≤ 10 µM

Query: Please report the recorded IC50 for CCNC(C)c1cccc(-c2cc(C(N)=O)c3[nH]cc(C4CCN(S(=O)(=O)CC)CC4)c3c2)c1 (stereo not drawn) [Example 280, trifluoroacetate] .
Response: ≤ 10 µM

---

# Target Or System: Recombinant human IKKβ (residues 1-737) (Homo sapiens)
# Construct: Recombinant human IKKβ (residues 1-737); GST (C); made in house
# Assay Procedure: IKK2 assay (TR-FRET)
# Type: biochemical
# Test Settings: ATP 1 μM final, read-out: pIC50 against IKK2 (converted)
Counter-ions that a name gives are not always drawn.
Observable: IC50

Some compounds with recorded IC50:
Compound	Target Or System	IC50
CCS(=O)(=O)N1CCC(c2c[nH]c3c(C(N)=O)cc(-c4csc(CN5CCC[C@H]5C)c4)cc23)CC1	Recombinant human IKKβ (residues 1-737) (Homo sapiens)	≤ 10 µM
CCS(=O)(=O)N1CCC(c2c[nH]c3c(C(N)=O)cc(-c4ccc(CNC5CCC5)cc4)cc23)CC1	Recombinant human IKKβ (residues 1-737) (Homo sapiens)	≤ 10 µM
CCS(=O)(=O)N1CCC(c2c[nH]c3c(C(N)=O)cc(-c4csc(CN5CCC(N6CCCC6)CC5)c4)cc23)CC1 [Example 392, trifluoroacetate]	Recombinant human IKKβ (residues 1-737) (Homo sapiens)	≤ 10 µM
CCCCNCc1cc(-c2cc(C(N)=O)c3[nH]cc(C4CCN(S(=O)(=O)CC)CC4)c3c2)cs1 [Example 121, trifluoroacetate]	Recombinant human IKKβ (residues 1-737) (Homo sapiens)	≤ 10 µM
CC[C@@H](C)NCc1cccc(-c2cc(C(N)=O)c3[nH]cc(C4CCN(S(=O)(=O)CC)CC4)c3c2)c1 [Example 155, trifluoroacetate]	Recombinant human IKKβ (residues 1-737) (Homo sapiens)	≤ 10 µM
CCS(=O)(=O)N1CCC(c2c[nH]c3c(C(N)=O)cc(-c4cccc(CCNCC(C)C)c4)cc23)CC1 [Example 345, trifluoroacetate]	Recombinant human IKKβ (residues 1-737) (Homo sapiens)	≤ 10 µM
CCS(=O)(=O)N1CCC(c2c[nH]c3c(C(N)=O)cc(-c4ccc(N5CCCC5)nn4)cc23)CC1 [Example 302, trifluoroacetate]	Recombinant human IKKβ (residues 1-737) (Homo sapiens)	≤ 10 µM
CCS(=O)(=O)N1CCC(c2c[nH]c3c(C(N)=O)cc(-c4csc(CN(C)Cc5c(C)n[nH]c5C)c4)cc23)CC1	Recombinant human IKKβ (residues 1-737) (Homo sapiens)	≤ 10 µM

Query: Please report the recorded IC50 for CCS(=O)(=O)N1CCC(c2c[nH]c3c(C(N)=O)cc(-c4cc(CN[C@H](C)C(C)C)ccc4F)cc23)CC1 [Example 338, trifluoroacetate] .
Response: ≤ 10 µM

Query: Similarly, CCc1cc(Br)ccc1S(=O)(=O)NCc1cccc(-c2cc(C(N)=O)c3[nH]cc(C4CCN(S(=O)(=O)CC)CC4)c3c2)c1 ?
Response: ≤ 10 µM

Query: Similarly, CCS(=O)(=O)N1CCC(c2c[nH]c3c(C(N)=O)cc(-c4cccc(CNS(=O)(=O)C5CC5)c4)cc23)CC1 ?
Response: ≤ 10 µM

Query: Similarly, CCS(=O)(=O)N1CCC(c2c[nH]c3c(C(N)=O)cc(-c4ccc(CNCCC(C)C)s4)cc23)CC1 ?
Response: ≤ 10 µM

Query: Similarly, CCS(=O)(=O)N1CCC(c2c[nH]c3c(C(N)=O)cc(-c4cccc(C5CNCCN5)c4)cc23)CC1 (stereo not shown) [Example 300, trifluoroacetate] ?
Response: ≤ 10 µM
